Measured pIC50 of individual entries
test_system: ROS1 (Homo sapiens, UniProt P08922)
Construct: purchased Carna Biosciences 08-163
Sequence (P08922 28-2347): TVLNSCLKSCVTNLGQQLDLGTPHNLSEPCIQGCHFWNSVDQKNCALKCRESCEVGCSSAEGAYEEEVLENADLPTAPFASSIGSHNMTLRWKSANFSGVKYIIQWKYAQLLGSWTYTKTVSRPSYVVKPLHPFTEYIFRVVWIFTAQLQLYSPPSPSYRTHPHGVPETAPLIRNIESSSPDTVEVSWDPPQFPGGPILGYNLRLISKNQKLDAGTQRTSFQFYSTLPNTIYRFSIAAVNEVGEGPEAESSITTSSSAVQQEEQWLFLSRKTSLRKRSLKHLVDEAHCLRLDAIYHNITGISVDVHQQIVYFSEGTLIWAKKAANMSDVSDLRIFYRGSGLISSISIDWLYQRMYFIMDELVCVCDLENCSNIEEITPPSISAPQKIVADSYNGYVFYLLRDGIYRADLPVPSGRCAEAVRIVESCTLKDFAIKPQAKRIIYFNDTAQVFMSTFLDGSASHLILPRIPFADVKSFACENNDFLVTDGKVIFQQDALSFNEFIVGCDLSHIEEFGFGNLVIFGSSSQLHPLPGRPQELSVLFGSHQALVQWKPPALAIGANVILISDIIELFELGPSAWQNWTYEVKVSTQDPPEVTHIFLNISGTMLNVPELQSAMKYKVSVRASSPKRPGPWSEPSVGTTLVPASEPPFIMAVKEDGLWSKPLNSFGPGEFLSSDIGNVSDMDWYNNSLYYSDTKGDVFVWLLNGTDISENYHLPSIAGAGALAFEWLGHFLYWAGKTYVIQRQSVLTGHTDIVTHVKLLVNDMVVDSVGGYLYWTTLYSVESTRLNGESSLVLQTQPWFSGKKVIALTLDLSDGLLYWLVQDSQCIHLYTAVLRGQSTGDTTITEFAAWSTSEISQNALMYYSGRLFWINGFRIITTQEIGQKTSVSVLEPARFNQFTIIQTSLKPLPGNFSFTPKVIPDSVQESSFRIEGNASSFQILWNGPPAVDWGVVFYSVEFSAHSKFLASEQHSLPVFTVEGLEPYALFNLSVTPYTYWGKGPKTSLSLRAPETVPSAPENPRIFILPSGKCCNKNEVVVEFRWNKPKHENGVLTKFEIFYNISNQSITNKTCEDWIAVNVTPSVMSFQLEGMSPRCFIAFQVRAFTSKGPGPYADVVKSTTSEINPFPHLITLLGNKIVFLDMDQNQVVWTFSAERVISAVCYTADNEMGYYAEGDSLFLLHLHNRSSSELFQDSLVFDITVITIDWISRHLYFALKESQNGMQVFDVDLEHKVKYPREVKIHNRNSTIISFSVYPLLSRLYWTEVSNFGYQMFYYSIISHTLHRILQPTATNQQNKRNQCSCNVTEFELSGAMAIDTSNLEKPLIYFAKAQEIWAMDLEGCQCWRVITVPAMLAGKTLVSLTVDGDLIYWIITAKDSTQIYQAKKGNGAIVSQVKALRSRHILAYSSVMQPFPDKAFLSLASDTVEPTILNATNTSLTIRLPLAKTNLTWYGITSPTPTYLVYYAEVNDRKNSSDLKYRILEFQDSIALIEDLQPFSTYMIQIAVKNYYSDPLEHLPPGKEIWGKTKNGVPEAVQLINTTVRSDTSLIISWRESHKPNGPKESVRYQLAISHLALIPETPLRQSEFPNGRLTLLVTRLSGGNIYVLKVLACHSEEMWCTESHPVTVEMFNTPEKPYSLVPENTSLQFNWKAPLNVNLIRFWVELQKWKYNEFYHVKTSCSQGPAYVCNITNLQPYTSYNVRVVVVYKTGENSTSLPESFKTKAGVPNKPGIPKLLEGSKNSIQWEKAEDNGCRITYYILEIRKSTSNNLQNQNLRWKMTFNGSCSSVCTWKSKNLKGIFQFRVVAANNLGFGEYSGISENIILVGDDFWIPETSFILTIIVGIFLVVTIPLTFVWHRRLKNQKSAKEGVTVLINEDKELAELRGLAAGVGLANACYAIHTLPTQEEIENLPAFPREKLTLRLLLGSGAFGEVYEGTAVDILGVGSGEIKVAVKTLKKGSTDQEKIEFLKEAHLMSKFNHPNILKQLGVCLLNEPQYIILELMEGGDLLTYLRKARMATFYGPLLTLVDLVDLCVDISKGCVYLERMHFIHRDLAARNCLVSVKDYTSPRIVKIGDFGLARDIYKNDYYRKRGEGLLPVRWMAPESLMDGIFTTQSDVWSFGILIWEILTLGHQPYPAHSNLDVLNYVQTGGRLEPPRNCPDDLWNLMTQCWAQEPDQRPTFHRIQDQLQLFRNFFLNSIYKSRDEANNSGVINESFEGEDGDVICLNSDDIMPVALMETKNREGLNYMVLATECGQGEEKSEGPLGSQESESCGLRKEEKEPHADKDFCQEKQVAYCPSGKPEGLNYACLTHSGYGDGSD
assay_method_text: ROS1 autophosphorylation inhibitory activity evaluation (ADP-Glo)
Format: biochemical
test_conditions: 200 nM inactive ROS1, ATP 1 mM, 25° C. 1.5 hours, ADP generated, four separate measurements
pIC50: −log10 of the molar value.

Please review the following examples before continuing.
{"columns": ["compound", "measure_name", "observed"],
 "data": [
  ["c1ccc(CNc2ccc3ncc(-c4cccc(OC[C@@H]5CCCN5)c4)n3n2)cc1", "pIC50", "7.00 to 7.70"],
  ["C[C@@H](Nc1ccc2ncc(-c3ccc(OC[C@@H](N)CO)cc3)n2n1)c1cccc(F)c1", "pIC50", "> 7.70"],
  ["Cc1cc(-c2cnc3ccc(OC(C)c4cncc(F)c4)nn23)ccc1N1C[C@@H](N)CC1=O (stereo partly shown)", "pIC50", "7.00 to 7.70"]
]}

Determine reported pIC50 for CC(Oc1ccc2ncc(-c3ccc(N4C[C@@H](N)CC4=O)cc3)n2n1)c1cncc(Cl)c1 (stereo partly shown) ; test system: ROS1 (Homo sapiens, UniProt P08922).
> 7.70

Determine reported pIC50 for `C[C@@H](Nc1ccc2ncc(-c3ccc(OC[C@@H](N)[C@@H](C)O)cc3)n2n1)c1cccc(F)c1` ; test system: ROS1 (Homo sapiens, UniProt P08922).
> 7.70
